From: ChEMBL document CHEMBL1212786

Target: CYP2B6 (Homo sapiens)
Sequence (P20813 whole entry): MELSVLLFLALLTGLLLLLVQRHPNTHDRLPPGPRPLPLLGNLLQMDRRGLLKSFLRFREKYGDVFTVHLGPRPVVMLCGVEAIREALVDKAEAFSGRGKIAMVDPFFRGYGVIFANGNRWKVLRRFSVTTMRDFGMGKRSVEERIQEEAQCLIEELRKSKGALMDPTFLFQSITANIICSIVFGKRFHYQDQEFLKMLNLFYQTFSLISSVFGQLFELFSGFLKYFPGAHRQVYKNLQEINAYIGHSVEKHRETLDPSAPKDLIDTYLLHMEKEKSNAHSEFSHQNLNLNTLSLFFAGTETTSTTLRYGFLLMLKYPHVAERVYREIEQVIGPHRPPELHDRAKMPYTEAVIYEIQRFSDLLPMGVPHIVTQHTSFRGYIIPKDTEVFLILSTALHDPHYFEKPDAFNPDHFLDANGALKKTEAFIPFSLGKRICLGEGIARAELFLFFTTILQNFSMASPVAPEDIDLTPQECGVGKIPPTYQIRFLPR
Assay: Induction of CYP2B6 in human hepatocytes at 2 uM after 72 hr relative to control
Format: ADME, cell-based, Hepatocyte
Conditions: read-out: FC
MEASUREMENT_LABEL: fold induction at 72 h, 2 µM

INPUT: Report measured fold induction at 72 h, 2 µM; entry is `Cc1ccc2cc3c(ccc4ccccc43)c3c2c1CC3`
OUTPUT: 1.33
